- Assay summary: drug combination growth inhibition, ovarian cancer – cell-based, oncology-focused library, rucaparib conditional, profiling panel (AID 1508598)
- Stated conditions: patient-derived ovarian cancer cells, CellTiter-Glo viability, 144 h; at 0.0195 µM; OCI-C5x cells; with rucaparib 10 µM; 100% = cells with rucaparib alone
The source made the active and inactive calls.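 How the source made its calls: active means normalized viability below 100% at a tested concentration; inactive means the rest.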
Possible outcomes: label 1 = active, label 0 = inactive

{"Entry smiles": "COc1ncc(-c2ccc3nccc(-c4ccnnc4)c3c2)cc1NS(=O)(=O)c1ccc(F)cc1F", "Classification": "label 1"}
{"Entry smiles": "CCOc1cc2ncc(C#N)c(Nc3ccc(F)c(Cl)c3)c2cc1NC(=O)/C=C/CN(C)C", "Classification": "label 0"}
{"Entry smiles": "CNC(=O)c1ccc(N2C(=S)N(c3ccc(C#N)c(C(F)(F)F)c3)C(=O)C2(C)C)cc1F", "Classification": "label 0"}
{"Entry smiles": "C/C(=C\\C(=O)Nc1ccccc1C(=O)O)c1ccc2ccccc2c1", "Classification": "label 0"}
{"Entry smiles": "COc1cc2c(Oc3ccc4[nH]c(C)cc4c3F)ncnc2cc1OCCCN1CCCC1", "Classification": "label 0"}
{"Entry smiles": "NC(=O)c1ccc(I)c([N+](=O)[O-])c1", "Classification": "label 0"}
{"Entry smiles": "CN1CCN(c2cccc(Nc3nc4c(-c5ccc(S(C)(=O)=O)cc5)cccn4n3)c2)CC1", "Classification": "label 0"}
{"Entry smiles": "Cc1cc2c(F)c(Oc3ncnn4cc(OC[C@@H](C)O)c(C)c34)ccc2[nH]1", "Classification": "label 0"}
{"Entry smiles": "O=C(NC1CCNCC1)c1[nH]ncc1NC(=O)c1c(Cl)cccc1Cl", "Classification": "label 0"}
{"Entry smiles": "CN1CCN(c2ccc3nc(-c4c(N)c5c(F)cccc5[nH]c4=O)[nH]c3c2)CC1", "Classification": "label 0"}
{"Entry smiles": "CC(C)(C)Cn1c(N)nc2ccc(-c3[nH]c(C(C)(C)C)nc3-c3ccc(F)cc3)nc21", "Classification": "label 0"}

====

- Assay summary: viability loss in pontine glioma line – cell-based, SU-DIPG-XXV, MIPE5.0, CellTiter-Glo, qHTS, dose response (AID 1347065);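 further: cells exposed to compound for 48 hours before ATP readout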
- Stated conditions: CellTiter-Glo ATP luminescence
Results filed as inconclusive are left out. The source made the active and inactive calls. No cut-off is given here; in the data, nearly all actives have AC50 up to about 26 µM.

{"Compound": "C[C@@H]1CN(CC(=O)Nc2ccc3c(c2)Cc2cccc(-c4cc(=O)cc(N5CCOCC5)o4)c2S3)C[C@H](C)O1", "AC50": "18.6 µM (active)"}
{"Compound": "c1cncc(CN2CCC(n3ncc4c(N5CCOCC5)nc(-c5ccc6[nH]ccc6c5)nc43)CC2)c1", "AC50": "5.25 µM (active)"}
{"Compound": "c1cc(N[C@@H]2CCNC2)nc(-c2cnc3ccc(-c4cn[nH]c4)cn23)c1", "AC50": "16.6 µM (active)"}
{"Compound": "CC#CC(=O)N1CCC[C@H]1c1nc(-c2ccc(C(=O)Nc3ccccn3)cc2)c2c(N)nccn12", "AC50": "inactive"}
{"Compound": "CSc1cccc(Nc2ncc3cc(-c4c(Cl)cccc4Cl)c(=O)n(C)c3n2)c1", "AC50": "1.05 µM (active)"}
{"Compound": "O=C1NC(=O)/C(=C/c2cccc(C(F)(F)F)c2)S1", "AC50": "inactive"}
{"Compound": "O=C(O)C1=CC(O)C(O)[C@H](O)C1 (stereo partly specified)", "AC50": "inactive"}
{"Compound": "COc1ccc([C@@H](O)[C@@H](C)Oc2ccc([C@H]3O[C@H](c4ccc(O[C@H](C)[C@H](O)c5ccc(OC)c(OC)c5)c(OC)c4)[C@H](C)[C@H]3C)cc2OC)cc1OC", "AC50": "10.5 µM (active)"}
{"Compound": "CCN(CC)CCCCNc1nc2cc(Cl)c(Cl)cc2nc1-c1ccc(-c2cccs2)s1", "AC50": "5.25 µM (active)"}
{"Compound": "COc1c(C)cc(NC(=O)c2nn(Cc3ccc(F)cc3)c3c2CN(C(=O)c2ccc[nH]2)C[C@]3(C)C(N)=O)cc1C", "AC50": "inactive"}
{"Compound": "NC(CO)(CO)CCc1ccc(Sc2cccc(OCc3ccccc3)c2)cc1Cl", "AC50": "9.34 µM (active)"}

====

- Assay summary: growth inhibition of DIPG cells – cell-based, MIPE5.0 library, qHTS (AID 1347068);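 on IC50: cells exposed to compound for 48 hours before viability readout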
- Stated conditions: SU-DIPG-XXV viability
Results filed as inconclusive are left out. The source made the active and inactive calls. The limit is not given here; nearly all actives have IC50 up to about 30 µM.
Possible outcomes: y = active, n = inactive

{"Molecule": "O=C1NC(=O)/C(=C/c2cccc(C(F)(F)F)c2)S1", "Classification": "n"}
{"Molecule": "CCCc1c(OCCCOc2ccc(OCC(=O)O)cc2)ccc(C(C)=O)c1O", "Classification": "n"}
{"Molecule": "C=C1C[C@H]2C=Nc3cc(OCCCOc4cc5c(cc4OC)C(=O)N4CC(=C)C[C@H]4C=N5)c(OC)cc3C(=O)N2C1", "Classification": "y"}
{"Molecule": "O=C(c1cc(Cc2n[nH]c(=O)c3ccccc23)ccc1F)N1CCN(C(=O)C2CC2)CC1", "Classification": "n"}
{"Molecule": "CCCC1OC2C[C@H]3[C@@H]4CCC5=CC(=O)C=C[C@]5(C)[C@H]4C(O)C[C@]3(C)[C@]2(C(=O)CO)O1 (stereo not given in full)", "Classification": "n"}
{"Molecule": "O=c1c(-c2ccc(O)cc2)coc2cc(O[C@@H]3O[C@H](CO)[C@@H](O)[C@H](O)[C@H]3O)ccc12", "Classification": "n"}
{"Molecule": "CCNC(=O)Nc1ccc(Oc2ncnc(N)c2/C=N/OC)cc1Cl", "Classification": "n"}
{"Molecule": "CC(C)(CO)n1cc(C(=O)c2cncc(NC(=O)Cc3ccc(Cl)cn3)c2)c2cnc(N)nc21", "Classification": "n"}
{"Molecule": "O=c1c(-c2ccc(O)cc2)coc2c([C@@H]3O[C@H](CO)[C@@H](O)[C@H](O)[C@H]3O)c(O)ccc12", "Classification": "n"}
{"Molecule": "CCOc1cc(N2CCC(O)CC2)ccc1Nc1ncc2c(n1)N(C)c1ccccc1C(=O)N2C", "Classification": "y"}
{"Molecule": "NC(=O)c1noc([C@H](CCCC2CCCCC2)CC(=O)NO)n1", "Classification": "n"}
{"Molecule": "Cc1ccc([N+](=O)[O-])cc1S(=O)(=O)N(C)/N=C/c1cnc2ccc(Br)cn12", "Classification": "y"}
{"Molecule": "COc1ccccc1[C@H](c1cccc2ccccc12)[C@@](C)(C#N)C(=O)N1CCC(c2cccc(C(F)(F)F)c2)CC1", "Classification": "n"}
{"Molecule": "Cc1cccc(-c2[nH]c(C(C)(C)C)nc2-c2ccc3nccnc3c2)n1", "Classification": "n"}
{"Molecule": "COc1cc(N2CCC(N3CCN(C)CC3)CC2)ccc1Nc1ncc(Cl)c(Nc2ccccc2P(C)(C)=O)n1", "Classification": "y"}

====

- Assay summary: drug combination growth inhibition, ovarian cancer – cell-based, oncology-focused library, rucaparib conditional, profiling panel (AID 1508598)
- Stated conditions: patient-derived ovarian cancer cells, CellTiter-Glo viability, 144 h; at 0.00122 µM; OCI-P5x cells; without rucaparib
Calls of active or inactive are those of the source.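 The calls were made as follows: active = normalized viability below 100% at a tested concentration; inactive = the rest.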
Possible outcomes: 1 (yes) = active, 0 (no) = inactive

{"Entry smiles": "CN1CCN(CCOc2cc(OC3CCOCC3)c3c(Nc4c(Cl)ccc5c4OCO5)ncnc3c2)CC1", "Classification": "1 (yes)"}
{"Entry smiles": "CCN1CCN(Cc2ccc(-c3cc4c(N[C@H](C)c5ccccc5)ncnc4[nH]3)cc2)CC1", "Classification": "0 (no)"}
{"Entry smiles": "CC1(C)CNc2cc(NC(=O)c3cccnc3NCc3ccncc3)ccc21", "Classification": "0 (no)"}
{"Entry smiles": "O=C(c1cc(Cc2n[nH]c(=O)c3ccccc23)ccc1F)N1CCN(C(=O)C2CC2)CC1", "Classification": "1 (yes)"}
{"Entry smiles": "NC1(c2ccc(-c3nc4ccn5c(=O)[nH]nc5c4cc3-c3ccccc3)cc2)CCC1", "Classification": "0 (no)"}
{"Entry smiles": "O=C(Cc1ccc(-c2ccc(OCCN3CCOCC3)cc2)cn1)NCc1ccccc1", "Classification": "0 (no)"}
{"Entry smiles": "Cc1nc(Nc2n[nH]c3c2CN(C(=O)N[C@H](CN(C)C)c2ccccc2)C3(C)C)c2sccc2n1", "Classification": "0 (no)"}
{"Entry smiles": "CS(=O)(=O)N1CCN(Cc2cc3nc(-c4cccc5[nH]ncc45)nc(N4CCOCC4)c3s2)CC1", "Classification": "1 (yes)"}
{"Entry smiles": "Cc1cnc(-c2ccccc2C(C)C)nc1NCc1ccc(-n2ccnn2)cc1", "Classification": "0 (no)"}
{"Entry smiles": "CC(C)(C)c1cc(NC(=O)Nc2ccc(-c3cn4c(n3)sc3cc(OCCN5CCOCC5)ccc34)cc2)no1", "Classification": "1 (yes)"}
{"Entry smiles": "CC(C)c1ccccc1Cc1cc(C(=O)Nc2ccc(S(=O)(=O)c3ccccc3C(C)(C)C)cc2)c(O)c(O)c1O", "Classification": "0 (no)"}
{"Entry smiles": "Cc1ccc(C(=O)N(CCCN)[C@@H](c2nc3cc(Cl)ccc3c(=O)n2Cc2ccccc2)C(C)C)cc1", "Classification": "1 (yes)"}
{"Entry smiles": "CCOc1cc(N2CCC(O)CC2)ccc1Nc1ncc2c(n1)N(C)c1ccccc1C(=O)N2C", "Classification": "0 (no)"}
